Here's a roundup of pIC50 values tested on DNA (cytosine-5)-methyltransferase 3B (Homo sapiens), taken from various published works.
For clarity, pIC50 is expressed as the negative log10 of concentration in mol/L.

Recorded pIC50, per entry:
- Compound: "Cc1oc2ncn(CCCN3CCCCC3)c(=O)c2c1C(=O)Nc1ccc(S(N)(=O)=O)nc1"
  pIC50: 4.19
- Compound: "Nc1ncnc2c1ncn2[C@@H]1O[C@H](CS[C@H]2CCNC2)[C@@H](O)[C@H]1O"
  pIC50: 4.59
- Compound: "Nc1ncnc2c1ncn2[C@@H]1O[C@H](CSCC[C@H](N)C(=O)O)[C@@H](O)[C@H]1O (racemic)"
  pIC50: 6.52

Asked: Hello, I am looking for reported pIC50 with DNA (cytosine-5)-methyltransferase 3B (Homo sapiens) for Nc1ncnc2c1ncn2[C@@H]1O[C@H](CS[C@H]2CN[C@H](C(=O)O)C2)[C@@H](O)[C@H]1O . Could you help?
Given back: 4.27

Asked: Entry to check: Cc1oc2ncn(CCN3CCCC3)c(=O)c2c1C(=O)Nc1ccc(S(N)(=O)=O)nc1
Given back: 3.98
